tested.system: T1, corticotropin-releasing hormone (CRH) peptide (human and mouse (same sequence), not fully specified)
T1 peptide: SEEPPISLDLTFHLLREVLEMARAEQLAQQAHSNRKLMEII
method.summary: cell-based or functional assay
Categorize each record by its hCRHR1 Luciferase Reporter Assay IC50 using lo: < 0.6 nM; mid: ≥ 0.6 nM and < 0.9 nM; hi: ≥ 0.9 nM

[Q] Just checking, what class would you give PR302334-9 (antibody, human IgG1, kappa, V domains shown) VH: EVQLVESGGGLVQPGGSLRLSCAASGFTFSTYAMSWVRQAPGKGLEWVASIRSGGTTYYPDSVKGRFTISRDNSKNTLYLQMNSLRAEDTAVYYCTRGIDWGQGTTVTVSS VL: DIVMTQSPDSLAVSLGERATINCKASQSVNNDVAWYQQKPGQPPRLLIYYASNRYTGVPDRFSGSGSGTDFTLTISSLQAEDVAVYYCQQDYSSWTFGGGTKVEIKR here?
[A] hi

[Q] Just checking, what class would you give PR302334-25 (antibody, human IgG1, kappa, V domains shown) VH: EVQLVESGGGLVKPGGSLRLSCAASGFTFSTYAMSWVRQAPGKGLEWVASIRSGGTTYYPDSVKGRFTISRDNAKNSLYLQMNSLRAEDTAVYYCTRGIDWGQGTTVTVSS VL: DIQMTQSSLSASVSLGDRVTITCKASQSVNNDVAWYQQKPGKAPRLLIYYASNRYTGVPSRFSGSGSGTDFTFTISSLQPEDLATYFCQQDYSSWTFGGGTKVEIKR here?
[A] hi

[Q] Just checking, what class would you give PR302334-24 (antibody, human IgG1, kappa, V domains shown) VH: EVQLVESGGGLVKPGGSLRLSCAASGFTFSTYAMSWVRQAPGKGLEWVASIRSGGTTYYPDSVKGRFTISRDNAKNSLYLQMNSLRAEDTAVYYCTRGIDWGQGTTVTVSS VL: DIVMTQSPDSLAVSLGERATINCKASQSVNNDVAWYQQKPGQPPRLLIYYASNRYTGVPDRFSGSGSGTDFTLTISSLQAEDLAVYFCQQDYSSWTFGGGTKVEIKR here?
[A] mid

[Q] Just checking, what class would you give PR302334-6 (antibody, human IgG1, kappa, V domains shown) VH: EVKLVESGGGLVKPGGSLKLSCAASGFTFSTYAMSWVRQTPEKRLEWVASIRSGGTTYYPDSVKGRFTISRDNARNILYLQMSSLRSEDTAIYYCTRGIDWGQGTLVTVSA VL: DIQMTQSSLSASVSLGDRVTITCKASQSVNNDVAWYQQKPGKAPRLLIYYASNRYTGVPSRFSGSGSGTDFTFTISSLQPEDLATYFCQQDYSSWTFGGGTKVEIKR here?
[A] lo

[Q] Just checking, what class would you give PR302334-1 (antibody, human IgG1, kappa, V domains shown) VH: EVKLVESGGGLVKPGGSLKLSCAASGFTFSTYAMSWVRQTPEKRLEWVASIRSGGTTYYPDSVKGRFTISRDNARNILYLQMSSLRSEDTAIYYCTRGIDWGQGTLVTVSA VL: EIVMTQSPATLSVSPGERATLSCKASQSVNNDVAWYQQKPGQAPRLLIYYASNRYTGIPARFSGSGSGTEFTLTISSLQSEDFAVYYCQQDYSSWTFGGGTKVEIKR here?
[A] mid

[Q] Just checking, what class would you give PR302334-16 (antibody, human IgG1, kappa, V domains shown) VH: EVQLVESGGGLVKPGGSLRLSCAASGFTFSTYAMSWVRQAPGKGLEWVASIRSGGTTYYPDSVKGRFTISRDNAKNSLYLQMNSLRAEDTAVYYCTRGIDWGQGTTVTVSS VL: NIVMTQTPKFLLVSAGDRITITCKASQSVNNDVAWYQQKPGQSPKLLIYYASNRYTGVPDRFTGSGYGTDFTFTISTVQAEDLAVYFCQQDYSSWTFGGGTNLEIKR here?
[A] lo

[Q] Just checking, what class would you give PR302334-17 (antibody, human IgG1, kappa, V domains shown) VH: EVQLVESGGGLVQPGGSLRLSCAASGFTFSTYAMSWVRQAPGKGLEWVSSIRSGGTTYYPDSVKGRFTISRDNSKNSLYLQMNSLRAEDTAVYYCARGIDWGQGTTVTVSS VL: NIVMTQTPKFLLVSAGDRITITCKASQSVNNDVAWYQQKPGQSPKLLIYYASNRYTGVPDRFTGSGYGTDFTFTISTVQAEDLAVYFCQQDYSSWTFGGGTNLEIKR here?
[A] hi

[Q] Just checking, what class would you give PR302334-14 (antibody, human IgG1, kappa, V domains shown) VH: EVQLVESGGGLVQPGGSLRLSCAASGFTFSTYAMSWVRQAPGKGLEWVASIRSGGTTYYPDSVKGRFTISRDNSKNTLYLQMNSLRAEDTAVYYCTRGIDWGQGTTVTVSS VL: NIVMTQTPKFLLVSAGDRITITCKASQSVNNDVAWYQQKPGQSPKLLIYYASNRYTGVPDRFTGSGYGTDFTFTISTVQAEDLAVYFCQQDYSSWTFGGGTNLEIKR here?
[A] lo
